Here, each record is paired with measured MFI (Max) data.
- measured_on: T1, human CD276 protein (human, UniProt Q5ZPR3 29-534)
- T1 construct: whole, on cells; for SKOV3 and the other cancer lines the protein is the cells' own; also called B7-H3; B7H3
- T1 sequence (looked up): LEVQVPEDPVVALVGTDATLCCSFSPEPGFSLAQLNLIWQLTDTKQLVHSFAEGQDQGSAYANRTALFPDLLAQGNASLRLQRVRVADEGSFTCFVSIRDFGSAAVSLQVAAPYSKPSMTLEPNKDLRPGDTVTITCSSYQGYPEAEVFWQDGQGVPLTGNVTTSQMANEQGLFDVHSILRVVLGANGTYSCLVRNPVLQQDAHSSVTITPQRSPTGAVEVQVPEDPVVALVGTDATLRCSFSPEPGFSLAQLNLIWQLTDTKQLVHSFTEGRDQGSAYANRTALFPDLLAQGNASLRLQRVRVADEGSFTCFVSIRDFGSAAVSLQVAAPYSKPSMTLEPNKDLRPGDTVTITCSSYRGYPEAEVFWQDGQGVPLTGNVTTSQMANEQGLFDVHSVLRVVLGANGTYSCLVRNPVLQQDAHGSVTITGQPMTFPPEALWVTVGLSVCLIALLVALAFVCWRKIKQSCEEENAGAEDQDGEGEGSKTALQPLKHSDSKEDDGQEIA
- protocol_summary: FACS on SKOV3 cells

The measured MFI (Max) associated with 27-E7-D8-C7 (human IgG1 chimeric antibody) (antibody, V domains shown, human IgG1 chimeric antibody of the mouse clone) VH: EVQLQESGPELVRPGVSVKISCKGSGYTFTDYAMHWVKQSHAKSLEWIGVINTYSDNTNYNRKFKGKATMTVDKSSSTAYMELARLTSEDSAIYYCARGLLLRSQLGVYFDYWGQGTTLTVSS VL: QIVLSQSPAILSASPGEKVTMTCRASSSVSYMHWYQQKPGSSPKPWIYATSNLASGVPARFSGSGSGTSYSLTISRVEAEDAATYYCQQWSSNPWTFGGGTKLEIK reads 4750

---
The measured MFI (Max) associated with 15-C8-B5-G7 (human IgG1 chimeric antibody) (antibody, V domains shown, human IgG1 chimeric antibody of the mouse clone) VH: QVQLQQPGAELVKPGASVKLSCKASDYTFTSHWMHWVKQRPGQGLEWIGMIHPNSGTTHYNENFKNKATLTVDNSSSTAYMQLSSLTSEDSAVYYCAWGSSNSYFYAMAYWGQGTSVTVSS VL: QAVVTQESALTTSPGETVTLTCRSSTGAVTTSNYANWVQEKPAHLFTGLIGGTNNRAPGVPARFSGSLIGDKAALTITGAQTEDEAIYFCALWFSNHLVFGGGTKLTVL reads 2140

The measured MFI (Max) associated with 3-G7-D8-D3 (human IgG1 chimeric antibody) (antibody, V domains shown, human IgG1 chimeric antibody of the mouse clone) VH: QVQLQQSGAELARPGTSVKLSCKASGYTFTTYWIQWVKQRPGQGLEWIGAIYPGDGDTRYTQKFKGKATLTADKSSSTAYMQLSTLASEDSAVYYCARPYDGYYIDYPMDSWGQGTSVTVSS VL: QIVLTQSPAIMSASPGEKVTMTCSASSRINYMHWYQQKPGTSPIIWIYDTSKLASGVPARFSGSGSGTSYSLTISSMEAEDAATYYCHQRSSYPFTFGSGTKLEIK reads 1210
